System: HOP-92 NSCLC
Test: NCI-60 one-dose screen, 48 h (100 = growth as untreated, 0 = no growth, -100 = all killed)
Conditions: 10 µM unless noted
Compounds without any hit were thinned out: in the full panel of roughly 83,000, 20% have a hit.

compound	measurementUnit	growth
COc1ccc(-c2cn(-c3ccc(Cl)cc3)c(SCC(=O)c3ccc([N+](=O)[O-])cc3)n2)cc1	%	28
C#CC#CC#CC#CC#CC#CC#CC#CC[C@H]1OC[C@@H](COC(=O)O[C@@H](C(=O)O[C@H]2C[C@@]3(O)[C@@H](OC(=O)c4ccccc4)[C@@H]4[C@]5(OC(C)=O)CO[C@@H]5C[C@H](O)[C@@]4(C)C(=O)[C@H](OC(C)=O)C(=C2C)C3(C)C)[C@@H](NC(=O)c2ccccc2)c2ccccc2)O1	%	79.3
COc1cc2cc(Oc3ccc(NC(=O)Nc4ccccc4)cc3)c(C)nc2cc1OCCN1CCCCC1	%	55.7
CCN(CC)CCCC(C)Nc1ccc2cc(OC)ccc2n1 (centres undefined)	%	91.5
